# growth values compiled below
# Test system: NCI-H322M lung
# ASSAY_SUMMARY: NCI-60 one-dose screen, 48 h (100 = growth as untreated, 0 = no growth, -100 = all killed)
# TEST_CONTEXT: 10 µM unless noted
About 83,000 compounds went through this panel and 20% of them were active in at least one assay; those are over-represented in the sample as a whole.
EXPERIMENTAL_READOUT: growth (%)

N#C/C(Sc1nc2sc3c(c2c(=O)n1Cc1ccccc1)CCCC3)=C1/SC=C(c2ccc(Cl)cc2)N1c1ccccc1    84.5
CC1=C([Se]CC(OC(=O)[C@@H](CO)NC(=O)OC(C)(C)C)C(=O)NCCCCCC(=O)OCc2ccccc2)C(=O)c2ccccc2C1=O (some centres undefined)    -74
O=C1c2ccccc2C(=O)c2cc(Cn3c[n+](Cc4ccc5ccccc5c4)c4ccccc43)ccc21    75.4
CN(CCNc1ccc(C(=N)N)cc1)c1ccc(C(=N)N)cc1    71
NC(=N\N=C/c1ccc(Cl)cc1Cl)/C(N)=N\N=C/c1ccc(Cl)cc1Cl    41
CC(=O)O[C@H]1CC[C@@]2(C)C(=CC[C@@H]3[C@@H]2CC[C@]2(C)C(Cl)=C(c4nc5ccc(Cl)cn5c4NC(C)(C)C)C[C@@H]32)C1    96.1
COC(=O)[C@@H](Cc1c[nH]c2ccccc12)NC[C@@H](O)CN1C(=O)/C(=C\c2cc(OC)c(OC)c(OC)c2)c2ccccc21    84.8
O=C1C=CC2(O)OC(c3ccccc3)CC(=O)C2=C1O (centres undefined)    90
Cc1cc(=O)oc2cc(Oc3nc(-c4ccccc4)cn4c(-c5ccccc5)cnc34)ccc12    86
CNc1nc2ncc(-c3c(C)noc3C)cc2n1Cc1ccccc1    67.1
CCN(CC)CCCNc1cc(OC)cc2cccnc12    107
CCCCC#Cc1c(I)n(C2OC(CO[Si](C)(C)C(C)(C)C)C3OC(C)(C)OC32)c(=O)[nH]c1=O (centres undefined)    84.3
COc1cccc2cc(N(C)c3nc(C)nc4c3CCC4)ccc12    59.1
Oc1c(Cl)cc(Cl)c2ccc(CN3CCNCC3)nc12    58.1
COC(=O)c1nc(-c2ccccc2)oc1S(=O)(=O)NCC(c1ccc(Cl)cc1)N1CCCCC1 (centres undefined)    97.2
CC(C)(C)n1cc(-c2ccnc(NCCNS(=O)(=O)c3cccc4ccccc34)c2)c(-c2cccc(O)c2)n1    89.6
Cc1cccc(CN(Nc2ccccc2)c2ccccc2)n1    96.7
COc1cc(C)cc(-c2c(-c3cc(N4CC(O)C4)nc(-c4cccnc4)n3)cnn2C)c1    101
COc1cc(C(=O)n2nc(NCCCc3ccccc3)c3cc(N)ccc32)cc(OC)c1OC    106
CCOC(=O)c1ccc2c(c1)[n+](=O)c(C(C)=O)c(C(F)(F)F)n2[O-]    94.4
COc1cc(CNC(=O)CCCC/C=C/C(C)C)ccc1OCc1cn(-c2cccc([N+](=O)[O-])c2)nn1    94.1
Clc1ccc(C2=Nn3c(nnc3-c3cc(Cl)cc(Cl)c3Cl)SC2)cc1    71.4
COc1ccc(N2C(=O)/C(=C/C(Cl)=C/c3ccc([N+](=O)[O-])cc3)SC2=S)cc1    31.2
CC1(C)CC[C@]2(CO)CC[C@]3(C)C(=CC[C@@H]4[C@@]5(C)CCNCC(C)(C)[C@@H]5CC[C@]43C)[C@@H]2C1    68.9
COc1cc2c(c(OC)c1OC)CCC(c1cccc(C(=O)Nc3ccc([N+](=O)[O-])cc3)c1)O2 (centres undefined)    68.3
N#Cc1c(-c2ccc(F)cc2)cc(-c2cccc(Cl)c2)[nH]c1=O    75.2
COc1ccccc1-c1nc2ccc3[nH]ncc3c2c2c1CCCC2    82.8
Nc1ccc(N)c2c1C(=O)c1cccc([N+](=O)[O-])c1C2=O    2.12
COc1ccc(CNc2ccc3nc(CCC4CCCCC4)[nH]c3c2)cc1    91.2
